testMethodNotes: Oral bioavailability in Han Wistar rat at 1.46 micromol/kg by LC-MS/MS analysis
Assay type: ADME, organism-based
testConditions: in vivo, 1.46 µmol/kg
readoutName: bioavailability (%)
One number for each entry, in %.

Name the reported bioavailability value associated with the molecule `COc1cc(F)c(O[C@H]2CC[C@@](C)(C(=O)O)CC2)cc1C(=O)N[C@@H]1[C@H]2CC[C@H](C2)[C@@H]1C(=O)Nc1ccc(F)c(S(F)(F)(F)(F)F)c1`
11

----------
targetOrSystem: Relaxin receptor 1 (Homo sapiens)
Sequence (Q9HBX9 whole entry): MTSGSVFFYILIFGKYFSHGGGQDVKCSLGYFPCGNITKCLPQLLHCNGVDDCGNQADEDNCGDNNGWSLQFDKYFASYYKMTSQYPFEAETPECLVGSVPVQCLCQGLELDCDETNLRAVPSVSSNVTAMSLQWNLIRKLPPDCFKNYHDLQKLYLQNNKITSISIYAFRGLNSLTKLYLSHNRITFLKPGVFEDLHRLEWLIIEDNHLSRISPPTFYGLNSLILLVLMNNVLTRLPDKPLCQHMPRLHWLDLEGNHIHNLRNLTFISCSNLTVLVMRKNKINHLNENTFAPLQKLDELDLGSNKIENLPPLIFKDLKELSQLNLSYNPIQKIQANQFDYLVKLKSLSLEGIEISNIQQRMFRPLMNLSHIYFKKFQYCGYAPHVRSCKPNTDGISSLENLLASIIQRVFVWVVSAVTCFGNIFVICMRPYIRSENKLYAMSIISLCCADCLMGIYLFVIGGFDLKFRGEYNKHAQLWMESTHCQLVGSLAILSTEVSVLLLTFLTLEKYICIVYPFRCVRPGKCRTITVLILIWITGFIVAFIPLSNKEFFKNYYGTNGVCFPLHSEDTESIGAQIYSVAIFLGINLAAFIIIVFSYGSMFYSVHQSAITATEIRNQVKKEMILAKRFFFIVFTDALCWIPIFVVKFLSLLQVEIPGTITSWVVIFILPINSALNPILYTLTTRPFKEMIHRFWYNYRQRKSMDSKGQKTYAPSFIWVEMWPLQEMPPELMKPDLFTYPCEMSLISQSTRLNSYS
testMethodNotes: Agonist activity at human RXFP1 expressed in T-Rex-CHO-K1 cells assessed as stimulation of cAMP production incubated for 45 mins by HTRF assay
Format: functional, cell-based
Please provide measured EC50 for the entries that follow.

Guide cases for EC50, answers given:
Query: EC50; subject: `COc1cc(F)c(O[C@H]2CC[C@@H](C(=O)O)CC2)cc1C(=O)N[C@@H]1[C@H]2CC[C@H](C2)[C@@H]1C(=O)Nc1ccncc1`
> 50.1 µM

Here is the next compound: COc1ccccc1C(=O)N[C@@H]1CCC[C@@H]1C(=O)Nc1cccc(S(=O)(=O)C(F)(F)F)c1 (racemic)
> 50.1 µM

Next:
Given the entry COc1ccccc1C(=O)N[C@H]1[C@@H](C(=O)Nc2cccc(S(=O)(=O)C(F)(F)F)c2)[C@H]2C=C[C@@H]1C2 (racemic) , report its measured EC50.
> 50.1 µM
